# target_desc: CDK2 (Homo sapiens)
# assay_notes: In vitro protein kinase inhibition assay (ELISA kit), CDK2
# protocol_conditions: read-out: Inhibition (%) CDK2, 1 µM; individual Data 1-3
Catalogue of compounds with associated inhibition at 1 µM
Numbers only; they are read as %.

O=C(/C=C/c1ccccc1)c1ccccc1 [Compound 4a, (E)-Chalcone]: 54
COc1cccc(C(=O)/C=C/c2ccc(OCc3ccccc3)cc2)c1: 71.1
COc1ccc(C(=O)/C=C/c2ccc(OCc3ccccc3)c(OC)c2)cc1: 51.2

// switching to the query compound
Observed inhibition at 1 µM, CDK2 (Homo sapiens), `O=C(/C=C/c1ccc(O)cc1)c1ccccc1` : 66.9

Where do the numbers come from? From paper PMC11766267.
